The following molecules are listed with their measured largest response in the series, negative = inhibition values.
molecular target: 4'-phosphopantetheinyl transferase ffp (Bacillus subtilis) (UniProt Q9F4F7); assay: qHTS Assay for Inhibitors of Bacillus subtilis Sfp phosphopantetheinyl transferase (PPTase); settings: Biochemical Sfp PPTase activity;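 also: the enzyme is Sfp with the accession as filed and its product quenches rhodamine fluorescence; 0% = enzyme reaction without inhibitor and -100% = no enzyme wells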
About 11,000 (3.5%) of roughly 310,000 compounds were called active. Another 4% or so got no clear call; they are omitted. What follows is part of a selection rich in actives, with near analogues and random picks from the rest.
Answer with a number only, understood to be in %.

// known answers, use as guide
INSERT INTO assay_data (smiles_text, readout_unit, experimental_result) VALUES
  ('CCn1c(COc2ccccc2)nnc1SCC(=O)NCc1ccco1', '%', 21.1),
  ('NC(=O)c1c(NC(=O)c2ccccc2)sc2c1CCCC2', '%', 4.07);

Task: What does the record list as largest response in the series, negative = inhibition for CC(C)(C)OC(=O)CNC(=O)c1[nH]cnc1C(=O)N[C@@H](Cc1ccccc1)C(=O)OCc1ccccc1 ?
Output: 19.7

Ref: PubChem BioAssay AID1490
